Molecular target: 5-HT3 receptor (Rattus norvegicus)
Sequence (P35563 24-483): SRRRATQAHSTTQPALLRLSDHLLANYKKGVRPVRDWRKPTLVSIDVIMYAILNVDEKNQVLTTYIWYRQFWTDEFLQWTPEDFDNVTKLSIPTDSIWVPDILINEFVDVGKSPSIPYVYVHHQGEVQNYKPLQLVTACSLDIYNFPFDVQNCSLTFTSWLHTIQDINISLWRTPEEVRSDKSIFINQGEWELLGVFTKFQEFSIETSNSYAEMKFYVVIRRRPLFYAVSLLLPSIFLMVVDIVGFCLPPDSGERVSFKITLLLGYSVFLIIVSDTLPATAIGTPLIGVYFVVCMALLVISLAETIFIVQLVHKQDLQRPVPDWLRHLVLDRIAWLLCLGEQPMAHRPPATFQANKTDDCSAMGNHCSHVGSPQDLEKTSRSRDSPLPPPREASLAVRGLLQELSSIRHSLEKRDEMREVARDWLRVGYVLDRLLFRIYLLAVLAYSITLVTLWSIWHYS
value_kind: Ki (nM)
Numbers only; they are read as nM.

Prompt: Query (compound): COc1ccc2[nH]cc(C3=CCNCC3)c2c1 ; field requested: Ki
Completion: 1.85

Origin of the recorded values: patent US5516782A
